# test.target: human CD137 on primary human CD8+ T cells (human, UniProt Q07011 24-255)
# Sequence (Q07011 24-255): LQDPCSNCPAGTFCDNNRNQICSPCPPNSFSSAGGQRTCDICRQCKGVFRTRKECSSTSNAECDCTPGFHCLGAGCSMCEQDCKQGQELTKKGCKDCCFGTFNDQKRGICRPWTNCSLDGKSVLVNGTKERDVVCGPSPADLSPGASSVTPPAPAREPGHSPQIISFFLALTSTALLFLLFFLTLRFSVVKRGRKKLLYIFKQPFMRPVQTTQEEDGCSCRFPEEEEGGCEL
# experiment.description: cell-based or functional assay
Cut-off 2000 pg/mL on Emax (IL-2 pg/ml), NCI-H226 co-culture, Donor A: below means True, at or above means False.

// known answers, use as guide
FS22-172-003-AA/FS28-256-014 (bispecific antibody, human IgG1, kappa, L234A L235A, V domains shown, IgG1 mAb^2 with LALA) VH: EVQLLESGGGLVQPGGSLRLSCAASGFTFTDTYMSWVRQAPGKGLEWVSNISPTYSTTNYADSVKGRFTISRDNSKNTLYLQMNSLRAEDTAVYYCARYNAYAAGLDYWGQGTLVTVSS VL: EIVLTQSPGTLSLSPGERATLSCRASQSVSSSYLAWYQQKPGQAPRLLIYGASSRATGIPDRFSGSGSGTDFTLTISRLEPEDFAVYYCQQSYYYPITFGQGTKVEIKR: True
FS22-172-003-AA/FS28-256-018 (bispecific antibody, human IgG1, kappa, L234A L235A, V domains shown, IgG1 mAb^2 with LALA) VH: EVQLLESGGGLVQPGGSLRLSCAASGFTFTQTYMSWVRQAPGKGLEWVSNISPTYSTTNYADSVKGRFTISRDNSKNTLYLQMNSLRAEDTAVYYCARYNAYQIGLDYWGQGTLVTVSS VL: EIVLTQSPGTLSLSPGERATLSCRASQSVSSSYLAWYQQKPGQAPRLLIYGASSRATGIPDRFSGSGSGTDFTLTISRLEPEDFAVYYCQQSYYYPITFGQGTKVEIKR: True
FS22-172-003-AA/FS28-256-021 (bispecific antibody, human IgG1, kappa, L234A L235A, V domains shown, IgG1 mAb^2 with LALA) VH: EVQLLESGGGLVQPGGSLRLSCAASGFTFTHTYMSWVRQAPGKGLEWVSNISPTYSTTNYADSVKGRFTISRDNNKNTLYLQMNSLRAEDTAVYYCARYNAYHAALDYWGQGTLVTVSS VL: EIVLTQSPGTLSLSPGERATLSCRASQSVSSSYLAWYQQKPGQAPRLLIYGASSRATGIPDRFSGSGSGTDFTLTISRLEPEDFAVYYCQQHNQYPNTFGQGTKVEIKR: True
FS22-172-003-AA/FS28-256-012 (bispecific antibody, human IgG1, kappa, L234A L235A, V domains shown, IgG1 mAb^2 with LALA) VH: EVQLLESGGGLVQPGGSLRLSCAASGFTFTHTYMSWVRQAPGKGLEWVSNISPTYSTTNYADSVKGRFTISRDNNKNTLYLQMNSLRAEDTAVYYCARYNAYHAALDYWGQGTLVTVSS VL: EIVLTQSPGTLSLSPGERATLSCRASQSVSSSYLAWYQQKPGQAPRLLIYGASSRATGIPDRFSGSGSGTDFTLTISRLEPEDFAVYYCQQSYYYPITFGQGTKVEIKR: True
FS22-172-003-AA/FS28-256-027 (bispecific antibody, human IgG1, kappa, L234A L235A, V domains shown, IgG1 mAb^2 with LALA) VH: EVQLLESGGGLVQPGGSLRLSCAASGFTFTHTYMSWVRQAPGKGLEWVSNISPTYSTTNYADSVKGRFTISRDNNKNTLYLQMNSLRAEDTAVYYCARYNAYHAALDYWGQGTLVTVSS VL: EIVLTQSPGTLSLSPGERATLSCRASQSVSSSYLAWYQQKPGQAPRLLIYGASSRATGIPDRFSGSGSGTDFTLTISRLEPEDFAVYYCQQTVPYPYTFGQGTKVEIKR: False

Continue with the next binder.
*Q* Bench note: check whether FS22-172-003-AA/FS28-256 (bispecific antibody, human IgG1, kappa, L234A L235A, V domains shown, IgG1 mAb^2 with LALA) VH: EVQLLESGGGLVQPGGSLRLSCAASGFTFTNTYMSWVRQAPGKGLEWVSNISPTYSTTNYADSVKGRFTISRDNSKNTLYLQMNSLRAEDTAVYYCARYNSYQGGLDYWGQGTLVTVSS VL: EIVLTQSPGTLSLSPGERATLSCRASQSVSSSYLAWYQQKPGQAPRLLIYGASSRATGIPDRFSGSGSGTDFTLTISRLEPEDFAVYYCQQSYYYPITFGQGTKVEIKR shows Emax (IL-2 pg/ml), NCI-H226 co-culture, Donor A below 2000 pg/mL
*A* True

Source: patent US12319739
